Test system: RPE-Neo or RPE-MYC or RPE-MYC expressing an EGFP-Histone 2B fusion protein
Assay: Phenotypic screening assay (arrest in mitosis or change in DNA content, IN-Cell Analyzer)
Format: cell-based
Details: compounds at 20 nM to 20 μM; analysed 24, 48 or 72 hours after initiation of treatment; read-out: Min. Effective conc. for Mitotic Arrest (>5%)
VALUE KIND: minimal effective concentration

MOLECULE	SYSTEM TESTED	minimal effective concentration
Cc1noc(C2=C(Br)c3ccccc3N(Cc3ccc(C)c(F)c3)C(=O)C2)n1	RPE-Neo or RPE-MYC or RPE-MYC expressing an EGFP-Histone 2B fusion protein	0.001 to 1 µM
Cc1ccc(CN2C(=O)CC(COC3CCOC3)=C(Br)c3ccccc32)cc1F (stereo not shown)	RPE-Neo or RPE-MYC or RPE-MYC expressing an EGFP-Histone 2B fusion protein	0.001 to 1 µM
Cc1ccc(S(=O)(=O)N2CCC(c3nnc(C4CC4)o3)=C(Br)c3ccccc32)cc1	RPE-Neo or RPE-MYC or RPE-MYC expressing an EGFP-Histone 2B fusion protein	1 to 10 µM

Lookup: // returns reported minimal effective concentration for input `COC1=C(c2nc(C)no2)CC(=O)N(Cc2ccc(C)c(F)c2)c2cc(Br)ccc21`
Found: 0.001 to 1 µM

====

Tested on: RPE-Neo or RPE-MYC or RPE-MYC expressing an EGFP-Histone 2B fusion protein
Assay: Phenotypic screening assay (arrest in mitosis or change in DNA content, IN-Cell Analyzer)
Format: cell-based
Settings: compounds at 20 nM to 20 μM; analysed 24, 48 or 72 hours after initiation of treatment; read-out: Min. Effective conc. for Mitotic Arrest (>5%)
VALUE KIND: minimal effective concentration

These solved cases illustrate the format of a correct answer.
COMPOUND	VALUE KIND	ENDPOINT RESULT
Cc1ccc(CN2C(=O)CC(c3cnco3)=C(Br)c3ccc(O)cc32)cc1F	minimal effective concentration	0.001 to 1 µM
Cc1nnc(C2=C(Br)c3ccc(Cl)cc3N(Cc3ccc(C)c(F)c3)C(=O)C2)o1	minimal effective concentration	0.001 to 1 µM
Cc1ccc(CN2C(=O)CC(c3cnco3)=C(Cl)c3ccc(C#N)cc32)cc1F	minimal effective concentration	0.001 to 1 µM
Cc1ccc(CN2C(=O)CC(c3nnc(C4CC4)o3)=C(Br)c3ccccc32)cc1F	minimal effective concentration	0.001 to 1 µM
Cc1ccc(CN2C(=O)CC(c3nnc(C4CC4)o3)=C(C3CC3)c3ccccc32)cc1F	minimal effective concentration	1 to 10 µM

Lookup: What does the record list as minimal effective concentration for `COC1=C(CO)CC(=O)N(Cc2ccc(C)c(F)c2)c2ccccc21` ?
Found: 30 to 1000 µM

Lookup: What would you report for `C#Cc1ccc2c(c1)N(Cc1ccc(C)c(F)c1)C(=O)CC(c1nnc(C3CC3)o1)=C2Br` ?
Found: 0.001 to 1 µM

Lookup: Then this compound: `COCC1=C(Br)c2ccccc2N(Cc2ccc(C)c(F)c2)C(=O)C1`
Found: 0.001 to 1 µM

Lookup: Now the compound `Cc1ccc(CN2C(=O)CC(c3cnco3)=C(Cl)c3ccc(O)cc32)cc1F`
Found: 0.001 to 1 µM

Lookup: And then `Cc1nnc(C2=C(Br)c3ccccc3N(Cc3ccc(C)c(F)c3)C(=O)C2)o1` , what is it?
Found: 0.001 to 1 µM

====

Listed here: items and their measured minimal effective concentration.
Test system: RPE-Neo or RPE-MYC or RPE-MYC expressing an EGFP-Histone 2B fusion protein
Assay: Phenotypic screening assay (arrest in mitosis or change in DNA content, IN-Cell Analyzer)
Assay type: cell-based
Settings: compounds at 20 nM to 20 μM; analysed 24, 48 or 72 hours after initiation of treatment; read-out: Min. Effective conc. for Mitotic Arrest (>5%)

Would you please look over these solved cases?
MOLECULE	SYSTEM TESTED	minimal effective concentration
CCOCC1=C(Cl)c2ccccc2N(Cc2ccc(C)c(F)c2)C(=O)C1	RPE-Neo or RPE-MYC or RPE-MYC expressing an EGFP-Histone 2B fusion protein	0.001 to 1 µM
COc1ccc(CN2C(=O)CC(c3nnc(C4CC4)o3)=C(Br)c3ccccc32)cc1	RPE-Neo or RPE-MYC or RPE-MYC expressing an EGFP-Histone 2B fusion protein	0.001 to 1 µM
Cc1ccc(CN2C(=O)CC(c3cnco3)=C(Br)c3ccccc32)cc1F	RPE-Neo or RPE-MYC or RPE-MYC expressing an EGFP-Histone 2B fusion protein	0.001 to 1 µM

Lookup: Reported minimal effective concentration for RPE-Neo or RPE-MYC or RPE-MYC expressing an EGFP-Histone 2B fusion protein, given Cc1ccc(CN2C(=O)CC(COCC3CCCO3)=C(Br)c3ccccc32)cc1F (stereo not drawn) ?
Found: 1 to 10 µM

Lookup: Try this molecule too: `Cc1ccc(CN2C(=O)CC(c3nnc(N)s3)=C(Br)c3ccccc32)cc1F`
Found: 0.001 to 1 µM

Lookup: Another molecule to look at: `Cc1ccc(CN2C(=O)CC(c3ccon3)=C(Cl)c3ccccc32)cc1F`
Found: 0.001 to 1 µM

Lookup: And what about the molecule `Cc1ccc(CN2C(=O)CC(COC3CCOCC3)=C(Br)c3ccccc32)cc1F` ?
Found: 1 to 10 µM

Lookup: Next molecule: `COC1=C(c2cnco2)CC(=O)N(Cc2ccc(C)c(F)c2)c2ccccc21`
Found: 1 to 10 µM

Lookup: Same lookup for `Cc1ccc(CN2C(=O)CC(c3nnc(C4CC4)o3)=C(Br)c3cccc(C)c32)cc1F` , please.
Found: 0.001 to 1 µM

Lookup: And what about the molecule `C#CC1=C(c2nnc(C3CC3)o2)CC(=O)N(Cc2ccc(C)c(F)c2)c2ccccc21` ?
Found: 0.001 to 1 µM

Lookup: Try this molecule too: `Cc1ccc(CN2C(=O)CC(c3nnc(C4CC4)o3)=C(Br)c3cccc(F)c32)cc1F`
Found: 0.001 to 1 µM

Lookup: Then what about the molecule `Cc1ccc(CN2C(=O)CC(c3cnco3)=C(Br)c3ccc(Br)cc32)cc1F` ?
Found: 0.001 to 1 µM

Lookup: Also, `Cc1ccc(CN2C(=O)CC(c3nnc(C4CC4)o3)=C(Br)c3ccc(OCCCN4CCOCC4)cc32)cc1F` please.
Found: 0.001 to 1 µM

====

Catalogue of compounds with associated minimal effective concentration
Tested on: RPE-Neo or RPE-MYC or RPE-MYC expressing an EGFP-Histone 2B fusion protein
Assay: Phenotypic screening assay (arrest in mitosis or change in DNA content, IN-Cell Analyzer)
Format: cell-based
Details: compounds at 20 nM to 20 μM; analysed 24, 48 or 72 hours after initiation of treatment; read-out: Min. Effective conc. for Mitotic Arrest (>5%)

ENTRY SMILES	SYSTEM TESTED	minimal effective concentration
Cc1ccc(CN2C(=O)CC(c3nnc(C4CC4)o3)=C(Br)c3c(F)cccc32)cc1F	RPE-Neo or RPE-MYC or RPE-MYC expressing an EGFP-Histone 2B fusion protein	0.001 to 1 µM
COc1ccc(S(=O)(=O)N2CCC(c3nnc(C4CC4)o3)=C(Br)c3ccccc32)cc1F	RPE-Neo or RPE-MYC or RPE-MYC expressing an EGFP-Histone 2B fusion protein	1 to 10 µM
Cc1ccc2c(c1)N(Cc1ccc(C)c(F)c1)C(=O)CC(c1cnco1)=C2Br	RPE-Neo or RPE-MYC or RPE-MYC expressing an EGFP-Histone 2B fusion protein	0.001 to 1 µM

Lookup: Entry `CC1=C(c2nnc(C3CC3)o2)CC(=O)N(Cc2ccc(C)c(F)c2)c2ccccc21` : reported minimal effective concentration = ?
Found: 0.001 to 1 µM

Lookup: Another compound: `Cc1ccc(CN2C(=O)CC(c3nnc(C4CC4)o3)=C(Br)c3ccc(C(N)=O)cc32)cc1F`
Found: 0.001 to 1 µM
